assay: Cytotoxicity against human MIAPaCa2 cells assessed as after 48 hrs by MTT assay; type: functional, cell-based; details: MIA PaCa-2, 48 h
measured-property: IC50 (µM)

structure_notation=COC(=O)c1c(Sc2c(O)cc3oc4cc(C)cc(O)c4c(=O)c3c2C(=O)OC)c(O)cc(OC)c1C(=O)c1c(O)cc(C)cc1O measured_property=IC50 unit_of_measure=µM result_value=30.3
structure_notation=COC(=O)c1c(Sc2c(O)cc(OC)c(C(=O)c3c(O)cc(C)cc3O)c2C(=O)OC)c(O)cc(OC)c1C(=O)c1c(O)cc(C)cc1O measured_property=IC50 unit_of_measure=µM result_value=50.8
structure_notation=COC(=O)c1c(Sc2c(O)cc3oc4cc(C)cc(O)c4c(=O)c3c2C(=O)OC)c(O)cc2oc3cc(C)cc(O)c3c(=O)c12 measured_property=IC50 unit_of_measure=µM result_value=29.3
